Molecular target: T1, basiliximab fab
T1 construct: The assay used a Fab of basiliximab; Chimeric antibody: human IgG1 constant, mouse variable domains
T1 sequence (VH, as listed by the source limits assumed, chain 1 of 2): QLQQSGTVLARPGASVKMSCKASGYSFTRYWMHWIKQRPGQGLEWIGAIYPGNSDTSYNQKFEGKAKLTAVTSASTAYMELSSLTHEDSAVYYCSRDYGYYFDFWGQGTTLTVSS
T1 sequence (VL, as listed by the source limits assumed, chain 2 of 2): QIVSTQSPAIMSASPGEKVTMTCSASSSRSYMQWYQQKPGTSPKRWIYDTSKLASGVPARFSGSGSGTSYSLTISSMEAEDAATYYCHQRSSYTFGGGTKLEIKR
Experiment: BLI; CD25-Fc on anti-hFc biosensor, basiliximab Fab in solution; global 1:1 fit;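 note: biolayer interferometry signals normalized against a reference probe and smoothed with a Savitzky-Golay filter before the global fit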
Answer each item with its documented koff.
Report the value in s⁻¹ with no unit label.

Exercise: So what does the record say about koff for CD25 L42I mutant (CD25-Fc) (Fc fusion, not shown: Fc part of CD25-Fc) ELCDDDPPEIPHATFKAMAYKEGTMLNCECKRGFRRIKSGSIYMLCTGNSSHSSWDNQCQCTSSATRNTTKQVTPQPEEQKERKTTEMQSPMQPVDQASLPGHCREPPPWENEATERIYHFVVGQMVYYQCVQGYRALHRGPAESVCKMTHGKTRWTQPQLICTGEMETSQFPGEEKPQASPEGRPESETSCLVTTTDFQIQTEMAATMETSIFTTEYQ ?
Key: 0.0116

Exercise: So what does the record say about koff for CD25 S41N mutant (CD25-Fc) (Fc fusion, not shown: Fc part of CD25-Fc) ELCDDDPPEIPHATFKAMAYKEGTMLNCECKRGFRRIKSGNLYMLCTGNSSHSSWDNQCQCTSSATRNTTKQVTPQPEEQKERKTTEMQSPMQPVDQASLPGHCREPPPWENEATERIYHFVVGQMVYYQCVQGYRALHRGPAESVCKMTHGKTRWTQPQLICTGEMETSQFPGEEKPQASPEGRPESETSCLVTTTDFQIQTEMAATMETSIFTTEYQ ?
Key: 0.00707

Exercise: So what does the record say about koff for CD25 L2F mutant (CD25-Fc) (Fc fusion, not shown: Fc part of CD25-Fc) EFCDDDPPEIPHATFKAMAYKEGTMLNCECKRGFRRIKSGSLYMLCTGNSSHSSWDNQCQCTSSATRNTTKQVTPQPEEQKERKTTEMQSPMQPVDQASLPGHCREPPPWENEATERIYHFVVGQMVYYQCVQGYRALHRGPAESVCKMTHGKTRWTQPQLICTGEMETSQFPGEEKPQASPEGRPESETSCLVTTTDFQIQTEMAATMETSIFTTEYQ ?
Key: 0.00252

Exercise: So what does the record say about koff for CD25 L2I mutant (CD25-Fc) (Fc fusion, not shown: Fc part of CD25-Fc) EICDDDPPEIPHATFKAMAYKEGTMLNCECKRGFRRIKSGSLYMLCTGNSSHSSWDNQCQCTSSATRNTTKQVTPQPEEQKERKTTEMQSPMQPVDQASLPGHCREPPPWENEATERIYHFVVGQMVYYQCVQGYRALHRGPAESVCKMTHGKTRWTQPQLICTGEMETSQFPGEEKPQASPEGRPESETSCLVTTTDFQIQTEMAATMETSIFTTEYQ ?
Key: 0.000734

Data credit: patent US20230056336A1
